- test-target: glucocorticoid receptor (GR) (Homo sapiens)
- Construct: cytosol preparation
- Sequence (P04150 1-777): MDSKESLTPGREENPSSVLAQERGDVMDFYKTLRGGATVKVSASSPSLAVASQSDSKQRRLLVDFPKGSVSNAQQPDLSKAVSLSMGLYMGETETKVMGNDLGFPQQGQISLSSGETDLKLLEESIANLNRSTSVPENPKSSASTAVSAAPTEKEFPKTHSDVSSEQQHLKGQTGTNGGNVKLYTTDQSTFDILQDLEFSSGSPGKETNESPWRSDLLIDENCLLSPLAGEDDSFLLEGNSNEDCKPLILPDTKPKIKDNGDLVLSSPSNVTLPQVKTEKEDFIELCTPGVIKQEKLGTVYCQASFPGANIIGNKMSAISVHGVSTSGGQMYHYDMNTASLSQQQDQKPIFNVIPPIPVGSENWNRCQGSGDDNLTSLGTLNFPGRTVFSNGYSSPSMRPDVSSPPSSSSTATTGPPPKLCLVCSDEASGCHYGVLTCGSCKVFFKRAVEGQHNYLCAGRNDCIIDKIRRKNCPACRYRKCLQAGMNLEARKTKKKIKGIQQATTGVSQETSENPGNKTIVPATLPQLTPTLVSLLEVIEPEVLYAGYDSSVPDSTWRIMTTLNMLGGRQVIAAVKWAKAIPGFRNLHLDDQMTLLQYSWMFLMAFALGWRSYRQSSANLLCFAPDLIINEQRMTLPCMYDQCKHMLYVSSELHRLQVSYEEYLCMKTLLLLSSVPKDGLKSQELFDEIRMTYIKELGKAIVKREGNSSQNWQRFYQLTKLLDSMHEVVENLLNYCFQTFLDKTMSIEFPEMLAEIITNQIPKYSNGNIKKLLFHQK
- test-description: binding to the glucocorticoid receptor (recombinant receptor, cytosol of baculovirus-infected Sf9 cells)
observation-type: pIC50
Answer as the number alone; pIC50 is minus log10 of concentration in mol/L.

In: For the compound shown here, COCC(O)(C(Nc1cc(F)cc2c1ccc(=O)n2-c1ccc(F)nc1)c1ccc(OC)c(F)c1Cl)C(F)(F)F (stereo not shown) [Example 2] , give the reported pIC50.
Out: 8.20
